Values from the supplement of paper PMC10126150

# Tested on: ATP;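 further: ATP exposure 15 min at 22 °C before imaging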
# assay_explanation: switch fluorescence ratio, 500 uM ATP over buffer (Cy3 cluster intensity, sum of 5 cycles each) (fold (ratio)); higher = stronger signal-on switching upon ATP binding; sequences stand for … in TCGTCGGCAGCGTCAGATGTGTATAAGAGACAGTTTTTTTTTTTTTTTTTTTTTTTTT…TC
# cond: aptamer strand: ATP DNA aptamer (quencher-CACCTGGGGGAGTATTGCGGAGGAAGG + anchor), 100 nM annealed; ATP concentration: 500 uM
Item-by-item account of switch fluorescence ratio
Number only, no unit.

[Q] Which measured switch fluorescence ratio belongs to `GCTTGAGGGG` , tested on ATP?;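 further: ATP exposure 15 min at 22 °C before imaging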
[A] 1.01

[Q] Next: `TATAAAAACT`
[A] 1.01

[Q] Also check `TTAGCTGTTA`
[A] 1

[Q] Another sequence to check: `CGGTTGTAAA`
[A] 1.02

[Q] Also `TCGCGTTGTG` ?
[A] 1.02

[Q] Check `TTTTTATTAA` too.
[A] 0.989

* * *

The entries below come with measured switch fluorescence ratio values attached.
# System: ATP;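 further: ATP exposure 15 min at 22 °C before imaging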
# assay_explanation: switch fluorescence ratio, 500 uM ATP over buffer (Cy3 cluster intensity, sum of 5 cycles each) (fold (ratio)); higher = stronger signal-on switching upon ATP binding; sequences stand for … in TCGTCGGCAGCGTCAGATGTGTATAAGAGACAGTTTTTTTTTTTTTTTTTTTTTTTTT…TC
# cond: aptamer strand: ATP DNA aptamer (quencher-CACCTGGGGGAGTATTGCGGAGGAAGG + anchor), 100 nM annealed; ATP concentration: 500 uM
Number only, no unit.

Sample records with switch fluorescence ratio:
seq_string	switch fluorescence ratio
TTCTATTCGA	1.01
TTATGTTCGA	1.02
AACGGTGTTT	1.03
AATAGACTT	0.999
AGTACTGCGA	1.05
ATATGGTGGG	1.01
GATAGTCTTG	0.985
TATGTTAGTT	1.01
AGCTGGTGGC	1.01
ATCGCCTTGT	0.994

[Q] Entry under review: `ATGCAGGTAT` . Reported switch fluorescence ratio?
[A] 1.01

[Q] Try the sequence `TTATTTTCGA`
[A] 0.999

[Q] And `GTTGTAGGTG` ?
[A] 1.06

[Q] What do we get for `TTAGCTACCT` ?
[A] 1.11

* * *

# System: ATP;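 further: ATP exposure 15 min at 22 °C before imaging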
# assay_explanation: switch fluorescence ratio, 500 uM ATP over buffer (Cy3 cluster intensity, sum of 5 cycles each) (fold (ratio)); higher = stronger signal-on switching upon ATP binding; sequences stand for … in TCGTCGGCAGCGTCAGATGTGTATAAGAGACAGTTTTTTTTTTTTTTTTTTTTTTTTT…TC
# cond: aptamer strand: ATP DNA aptamer (quencher-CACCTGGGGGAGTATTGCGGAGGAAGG + anchor), 100 nM annealed; ATP concentration: 500 uM
measurement_label: switch fluorescence ratio
Number, no unit, nothing else.

Use the examples below as a reference point.
seq_string	switch fluorescence ratio
GGGGTGGATT	0.974
GGGTCGGGGT	0.99
GCTTCGGCGC	1.03

[Q] Give ATP switch fluorescence ratio for `GGGGATGTAC`
[A] 1.07

[Q] What about `AGTTTGTTGC` ?
[A] 1

[Q] Also `TGGGCGTAAG` , if possible.
[A] 1.02

[Q] Try this sequence next: `GCGTTTAACT`
[A] 0.989

[Q] Repeat with `TTTGATTGTT`
[A] 0.97

[Q] Also `TTTGGGAATA` ?
[A] 1.02
